Consider the following compounds and their measured IC50 readings.
# system-under-test: human progesterone hormone receptor (hPR) (Homo sapiens, UniProt P06401)
# Construct: The receptor was obtained in cytosol from human T-47D breast cells; endogenous in cells
# experiment-summary: Receptor binding (human), inhibition of [^3 H]-R5020 binding
# run-parameters: cytosol from human T-47D cells; 0.4 nM [^3 H]-R5020; 4 hours at 4° C.
Express the result in nM but write the number alone.

Here is how some compounds turned out for IC50.
{"columns": ["compound", "recorded-value"],
 "data": [
  ["CN(C)c1ccc([C@H]2C[C@@]3(C)[C@@H](CC[C@]3(CCCO)[N+](=O)[O-])[C@@H]3CCC4=CC(=O)CCC4=C32)cc1", 4.1],
  ["CC(=O)c1ccc([C@H]2C[C@@]3(C)[C@@H](CC[C@]3(CCCO)[N+](=O)[O-])[C@@H]3CCC4=CC(=O)CCC4=C32)cc1", 16]
]}

query: # lookup: human progesterone hormone receptor (hPR) (Homo sapiens, UniProt P06401) IC50, key = CC1=[N+]([O-])C2(CC1)CCC1C3CCC4=CC(=O)CCC4=C3C(c3ccc(N(C)C)cc3)CC12C (stereo not drawn)
result: 10.2

----------
# system-under-test: human progesterone hormone receptor (hPR) (Homo sapiens, UniProt P06401)
# Construct: The receptor was obtained in cytosol from human T-47D breast cells; endogenous in cells
# Sequence (P06401 1-933): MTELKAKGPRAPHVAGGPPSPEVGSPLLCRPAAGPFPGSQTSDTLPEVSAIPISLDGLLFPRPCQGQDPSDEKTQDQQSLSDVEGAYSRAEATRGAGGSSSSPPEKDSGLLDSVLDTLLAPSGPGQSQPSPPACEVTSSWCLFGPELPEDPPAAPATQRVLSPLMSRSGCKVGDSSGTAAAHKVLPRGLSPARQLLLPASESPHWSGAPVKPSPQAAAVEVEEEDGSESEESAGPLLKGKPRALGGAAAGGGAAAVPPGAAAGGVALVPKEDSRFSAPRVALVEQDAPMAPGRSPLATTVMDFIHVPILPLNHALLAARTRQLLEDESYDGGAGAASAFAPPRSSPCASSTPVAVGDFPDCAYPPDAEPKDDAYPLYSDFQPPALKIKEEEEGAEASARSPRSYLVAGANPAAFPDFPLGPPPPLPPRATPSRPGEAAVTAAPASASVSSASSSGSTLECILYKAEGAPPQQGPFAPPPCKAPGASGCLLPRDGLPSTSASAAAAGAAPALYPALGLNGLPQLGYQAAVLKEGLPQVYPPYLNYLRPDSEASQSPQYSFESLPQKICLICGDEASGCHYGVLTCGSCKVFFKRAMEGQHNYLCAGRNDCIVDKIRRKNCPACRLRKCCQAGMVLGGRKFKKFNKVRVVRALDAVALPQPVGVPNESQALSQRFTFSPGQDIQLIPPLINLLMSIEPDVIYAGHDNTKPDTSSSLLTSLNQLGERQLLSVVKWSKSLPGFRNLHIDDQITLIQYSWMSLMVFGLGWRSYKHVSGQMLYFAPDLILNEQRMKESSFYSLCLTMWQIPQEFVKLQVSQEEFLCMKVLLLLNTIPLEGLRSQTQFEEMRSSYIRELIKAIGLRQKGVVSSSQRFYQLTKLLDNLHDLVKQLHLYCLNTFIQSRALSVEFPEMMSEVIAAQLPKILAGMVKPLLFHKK
# experiment-summary: Receptor binding (human), inhibition of [^3 H]-R5020 binding
# run-parameters: cytosol from human T-47D cells; 0.4 nM [^3 H]-R5020; 4 hours at 4° C.
The entries below come with measured IC50 values attached.
# output: bare number, implied unit nM

{"columns": ["mol-smiles", "system-under-test", "quantity", "recorded-value"],
 "data": [
  ["CC#C[C@]1([N+](=O)[O-])CC[C@H]2[C@@H]3CCC4=CC(=O)CCC4=C3[C@@H](c3ccc(C(C)=O)cc3)C[C@@]21C", "human progesterone hormone receptor (hPR) (Homo sapiens, UniProt P06401)", "IC50", 0.8],
  ["CN(C)c1ccc([C@H]2C[C@@]3(C)[C@@H](CC[C@@]34CCC=[N+]4[O-])[C@@H]3CCC4=CC(=O)CCC4=C32)cc1", "human progesterone hormone receptor (hPR) (Homo sapiens, UniProt P06401)", "IC50", 18]
]}

Let us move to another entry and its IC50.
query: In one line, give reported IC50 of the entry CC(=O)c1ccc([C@H]2C[C@@]3(C)[C@@H](CC[C@]3(/C=C/CO)[N+](=O)[O-])[C@@H]3CCC4=CC(=O)CCC4=C32)cc1 .
result: 26.1
